From: patent US20260374754A1

TARGET_SYSTEM: human activated kallikrein enzyme (Homo sapiens)
PROTOCOL_DESCRIPTION: Inhibition of human activated plasma kallikrein, fluorogenic PFR-AMC substrate, 500 pM enzyme format
Assay type: biochemical
TEST_PARAMETERS: 500 pM activated kallikrein; 300 μM PFR-AMC; 30 min preincubation; 10 min room temperature; pH 7.5; read-out: Primary Dose Response Assay: Average EC50
Protocol: Compounds were evaluated for inhibition of the human activated kallikrein enzyme in two formats of an assay employing a fluorogenic peptide substrate. […] After initiation with substrate, reactions were incubated for 10 min at room temperature and fluorescence emission at 460 nm from 380 nm excitation measured with a microplate reader. […]
pEC50: −log10 of the molar value.
PROPERTY_NAME: pEC50

MOLECULE: Cc1cc2c(N)nccc2c(C)c1CNC(=O)c1cnn(Cc2ccc(CCn3ccccc3=O)cc2)c1 [Example 49]
TARGET_SYSTEM: human activated kallikrein enzyme (Homo sapiens)
PROPERTY_NAME: pEC50
RESULT: 8.00 to 9.00
--
MOLECULE: Cc1cc2c(N)nccc2c(C)c1CNc1cc(OCc2nc3ccc(C4CC4)cn3n2)ncn1 [Example 388]
TARGET_SYSTEM: human activated kallikrein enzyme (Homo sapiens)
PROPERTY_NAME: pEC50
RESULT: 8.00 to 9.00
--
MOLECULE: Cc1cc2c(N)nccc2c(C)c1CNc1cc(OCc2ccc(Cc3cccn(C)c3=O)cc2)cnn1 [Example 440]
TARGET_SYSTEM: human activated kallikrein enzyme (Homo sapiens)
PROPERTY_NAME: pEC50
RESULT: > 9.00
--
MOLECULE: Cc1cc2c(N)nccc2c(C)c1CNc1cc2c(ccn2Cc2ccc(Cn3cccn3)cc2)nn1 [Example I-457]
TARGET_SYSTEM: human activated kallikrein enzyme (Homo sapiens)
PROPERTY_NAME: pEC50
RESULT: > 9.00
--
MOLECULE: COCc1c(C(=O)NCc2c(C)cc3c(N)nccc3c2C)cnn1Cc1cnc(N2CCCC2)nc1 [Example 161]
TARGET_SYSTEM: human activated kallikrein enzyme (Homo sapiens)
PROPERTY_NAME: pEC50
RESULT: 7.00 to 8.00
--
MOLECULE: Cc1cc2c(N)nccc2c(C)c1CNC(=O)c1cnn(Cc2cccc(C3CC3)c2)c1 [Example 31]
TARGET_SYSTEM: human activated kallikrein enzyme (Homo sapiens)
PROPERTY_NAME: pEC50
RESULT: 8.00 to 9.00
--
MOLECULE: Cc1cc2c(N)nccc2c(C)c1CNC(=O)c1cnn(Cc2ccccc2C2CC2)c1 [Example 118]
TARGET_SYSTEM: human activated kallikrein enzyme (Homo sapiens)
PROPERTY_NAME: pEC50
RESULT: 6.00 to 7.00
--
MOLECULE: COc1ccc2cc(Cn3cc(C(=O)NCc4c(C)cc5c(N)nccc5c4C)cn3)cnc2c1 [Example 111]
TARGET_SYSTEM: human activated kallikrein enzyme (Homo sapiens)
PROPERTY_NAME: pEC50
RESULT: > 9.00

---

TARGET_SYSTEM: human activated kallikrein enzyme (Homo sapiens, UniProt P03952)
Sequence (P03952 391-638 limits assumed): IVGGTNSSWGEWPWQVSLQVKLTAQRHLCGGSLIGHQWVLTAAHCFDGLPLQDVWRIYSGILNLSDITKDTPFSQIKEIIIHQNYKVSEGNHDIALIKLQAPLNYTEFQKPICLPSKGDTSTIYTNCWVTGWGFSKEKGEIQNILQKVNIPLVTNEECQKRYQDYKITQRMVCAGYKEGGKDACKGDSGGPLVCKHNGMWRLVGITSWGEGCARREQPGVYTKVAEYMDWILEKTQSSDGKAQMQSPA
Sequence (P03952 20-390 partner limits assumed): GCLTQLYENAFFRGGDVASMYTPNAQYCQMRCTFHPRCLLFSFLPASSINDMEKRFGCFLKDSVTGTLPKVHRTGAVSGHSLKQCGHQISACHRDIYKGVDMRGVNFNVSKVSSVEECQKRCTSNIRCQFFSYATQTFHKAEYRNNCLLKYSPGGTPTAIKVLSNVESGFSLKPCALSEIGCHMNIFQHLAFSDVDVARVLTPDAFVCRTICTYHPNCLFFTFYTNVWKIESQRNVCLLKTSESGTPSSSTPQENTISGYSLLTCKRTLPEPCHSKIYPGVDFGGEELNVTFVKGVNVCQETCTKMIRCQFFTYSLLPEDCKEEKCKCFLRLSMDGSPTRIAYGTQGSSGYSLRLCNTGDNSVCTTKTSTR
PROTOCOL_DESCRIPTION: Inhibition of human activated plasma kallikrein, fluorogenic PFR-AMC substrate, 500 pM enzyme format
Assay type: biochemical
TEST_PARAMETERS: Primary Dose Response Assay: Average EC50, 500 pM activated kallikrein; 300 μM PFR-AMC; 30 min preincubation; 10 min room temperature; pH 7.5

COMPOUND: Cc1cc(CNc2cc(NCc3c(C)cc4c(N)nccc4c3C)ncn2)cc(C)c1CC(=O)N1CC2CC2C1 (stereo not shown)
EC50: < 1 nM

COMPOUND: Cc1c(CNC(=O)c2cnn(Cc3ccccc3)c2)c(C)c2ccnc(N)c2c1C
EC50: > 1000 nM

COMPOUND: Cc1cc2c(N)nccc2c(C)c1CNC(=O)c1cn(Cc2cn3cc(C4CC4)ccc3n2)c2cccnc12
EC50: 1 to 10 nM

COMPOUND: Cc1cc2c(N)nccc2c(C)c1CNc1cc(NCc2ccc(CC(=O)N(C)C)cc2)ncn1
EC50: < 1 nM
